Numbers sourced from the supplement of paper PMC9694430.

Tested on: LOC_OS06G16330-cb003
Sequence (as listed by the source): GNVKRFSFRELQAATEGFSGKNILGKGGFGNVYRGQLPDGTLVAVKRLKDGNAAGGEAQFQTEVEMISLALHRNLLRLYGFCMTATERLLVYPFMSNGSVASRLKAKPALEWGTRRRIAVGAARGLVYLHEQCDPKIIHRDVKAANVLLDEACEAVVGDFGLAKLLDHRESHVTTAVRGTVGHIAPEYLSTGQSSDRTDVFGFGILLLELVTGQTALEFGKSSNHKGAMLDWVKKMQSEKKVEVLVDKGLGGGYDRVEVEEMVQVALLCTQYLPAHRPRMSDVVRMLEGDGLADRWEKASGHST
Assay: thermal shift delta Tm vs DMSO control; higher = stronger stabilization (binding);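 also: purified Escherichia coli-expressed rice kinase domain construct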
Settings: 12.5 µM; protein concentration 2 µM
Structures can show the parent of a compound that is named as a salt.
So I've got a bunch of molecules here, and I need their thermal shift delta Tm values.
Form entry: value (°C) — number only.

Exam item: // map `COC(=O)N[C@@H](C)CNc1nccc(-c2cn(C(C)C)nc2-c2cc(Cl)cc(NS(C)(=O)=O)c2F)n1` to recorded thermal shift delta Tm (system: LOC_OS06G16330-cb003)
Marked response: 1.92

Exam item: One more molecule: `CNc1nc(Nc2cnn([C@H]3CCN(C4COC4)C[C@@H]3F)c2Cl)ncc1C(F)(F)F`
Marked response: 5.64

Exam item: One more molecule: `Cn1cc(-c2ccc(F)c(C(F)(F)F)c2)nc1C1CCN(c2ncnc3[nH]ncc23)CC1`
Marked response: 0.11

Exam item: One more molecule: N=C(N)NC(=N)NCCc1ccccc1 [Phenformin HCl]
Marked response: -0.35

* * *

Tested on: LOC_OS03G50450-cb001
Assay: thermal shift delta Tm vs DMSO control; higher = stronger stabilization (binding)
Details: 12.5 µM; protein concentration 2 µM
So I've got a bunch of compounds here, and I need their thermal shift delta Tm values.
Form entry: value (°C) — number only.

Exam item: Which thermal shift delta Tm is listed for `C#Cc1cccc(Nc2ncnc3cc(OCCOC)c(OCCO)cc23)c1` ?
Marked response: 0.13

Exam item: One more compound: `CN1c2ccccc2C(=O)Nc2cnc(Nc3ccc(N4CCC(O)CC4)cc3)nc21`
Marked response: -0.12

Exam item: One more compound: `Cc1cnc(Nc2ccc(N3CCN(C)CC3)cc2)nc1Nc1cccc(S(=O)(=O)NC(C)(C)C)c1`
Marked response: 2.4

Exam item: One more compound: Oc1cc(O)cc(/C=C/c2ccc(O)c(O)c2)c1 [Piceatannol]
Marked response: 0.23

Exam item: One more compound: `CCn1c(-c2nonc2N)nc2cnc(Oc3cccc(NC(=O)c4ccc(OCCN5CCOCC5)cc4)c3)cc21`
Marked response: -0.03

Exam item: One more compound: `CC1(C)OCCn2c1nc1c(N3CCOCC3)nc(-c3cnc(N)nc3)nc12`
Marked response: 0.18

Exam item: One more compound: Cc1ccc(NC(=O)c2ccc(CN3CCN(C)CC3)cc2)cc1Nc1nc(-c2cccnc2)cs1 [Masitinib (AB1010)]
Marked response: 0.58

Exam item: One more compound: `CO[C@H]1CC[C@H](N2C(=O)CNc3ncc(-c4ccc(C(C)(C)O)nc4)nc32)CC1`
Marked response: 0.22

Exam item: One more compound: CN1CCN(c2ccc3nc(-c4c(N)c5c(F)cccc5[nH]c4=O)[nH]c3c2)CC1 [Dovitinib (TKI258) Lactate]
Marked response: 5.37

Exam item: One more compound: `CCS(=O)(=O)c1cccc(-c2cc(C(=O)NC3CCN(C)CC3)c(C)c3[nH]c4ncc(C)cc4c23)c1`
Marked response: 3.53

Exam item: One more compound: S=C(NCc1ccc2c(c1)OCO2)N1CCN(c2ncnc3c2oc2ccccc23)CC1 [Amuvatinib (MP-470)]
Marked response: 0.69

Exam item: One more compound: CC[C@@](C)(Nc1ccnc(-c2c[nH]c3ncccc23)n1)C(=O)NCC(F)(F)F [Decernotinib (VX-509)]
Marked response: 0.54

Exam item: One more compound: CN1CCN(c2ccc(C(=O)Nc3n[nH]c4ccc(Cc5cc(F)cc(F)c5)cc34)c(NC3CCOCC3)c2)CC1 [Entrectinib (RXDX-101)]
Marked response: 0.86

Exam item: One more compound: `Nc1ncc(-c2ccnc(Nc3ccncc3)n2)c(CC2CC2)n1`
Marked response: 0.09

Exam item: One more compound: `COc1ccc(-c2nc(N3CCOCC3)c3sc(CN(C)c4ncc(C(=O)NO)cn4)cc3n2)cn1`
Marked response: -0.05

Exam item: One more compound: `Cc1c(NC(=O)OC[C@@H]2COCCN2)cn2ncnc(Nc3ccc4c(cnn4Cc4cccc(F)c4)c3)c12`
Marked response: 0.45

Exam item: One more compound: Cc1ccc(F)c(NC(=O)Nc2ccc(-c3cccc4[nH]nc(N)c34)cc2)c1 [Linifanib (ABT-869)]
Marked response: 0.4

* * *

System: LOC_OS05G28520-cb001
Assay: thermal shift delta Tm vs DMSO control; higher = stronger stabilization (binding)
Details: 12.5 µM; protein concentration 2 µM
Where a name gives a salt, the structure may show the parent alone.
Parameter threshold = 0.6 °C. Response is Yes when thermal shift delta Tm meets or exceeds it, else No.

Exam item: Hi, just wondering whether `c1cn2cc(-c3ccc4cn[nH]c4c3)nc(Nc3ccc(N4CCOCC4)cc3)c2n1` shows thermal shift delta Tm of 0.6 °C or higher.
Marked response: Yes

Exam item: One more molecule: `CN(C)C/C=C/C(=O)Nc1ccc(C(=O)Nc2cccc(Nc3ncc(Cl)c(-c4c[nH]c5ccccc45)n3)c2)cc1`
Marked response: Yes

Exam item: One more molecule: `N#CC[C@H](C1CCCC1)n1cc(-c2ncnc3[nH]ccc23)cn1`
Marked response: No

Exam item: One more molecule: `C#Cc1cccc(Nc2ncnc3cc(OC)c(OCCCCCCC(=O)NO)cc23)c1`
Marked response: No

Exam item: One more molecule: `NC(=O)c1ncn([C@@H]2O[C@H](CO)[C@@H](O)[C@H]2O)c1N`
Marked response: No

Exam item: One more molecule: CCCCCCCCc1ccc(CCC(N)(CO)CO)cc1 [Fingolimod (FTY720) HCl]
Marked response: No

Exam item: One more molecule: `C=CC(=O)N1CCN(CCCn2c(=O)c(-c3c(Cl)c(OC)cc(OC)c3Cl)cc3cnc(NC)nc32)CC1`
Marked response: No

Exam item: One more molecule: `CNC(=O)c1cc(Oc2ccc3nc(N[C@@H]4CCCC[C@H]4O)sc3c2)ccn1`
Marked response: Yes

Exam item: One more molecule: `O=C(Nc1cccc(C(F)(F)F)c1)c1cccc2cc(Oc3cc(CO)ncn3)ccc12`
Marked response: No

Exam item: One more molecule: `CC(C)(C)NC(=O)c1cncn1C1CCN(c2ccc(-c3nnc(C(F)(F)F)o3)cn2)CC1`
Marked response: No

Exam item: One more molecule: `Nc1nccc(Oc2ccc(NC(=O)c3c[nH]cc(-c4ccc(F)cc4)c3=O)cc2F)c1Cl`
Marked response: No

Exam item: One more molecule: `C=CC(=O)Nc1cccc(Nc2nc(Nc3ccc(N4CCN(C(C)=O)CC4)cc3OC)ncc2C(F)(F)F)c1`
Marked response: Yes

Exam item: One more molecule: `FC(F)(F)c1ccc(Nc2nc3ccc(Oc4ccnc(-c5ncc(C(F)(F)F)[nH]5)c4)cc3[nH]2)cc1`
Marked response: Yes

Exam item: One more molecule: `CCc1nc(C(N)=O)c(Nc2ccc(N3CCC(N4CCN(C)CC4)CC3)c(OC)c2)nc1NC1CCOCC1`
Marked response: Yes

Exam item: One more molecule: `COc1ccc(CC(=O)Nc2nc3c(s2)CCc2ccccc2-3)cc1OC`
Marked response: No

Exam item: One more molecule: `CC[C@@H](N)CNc1ccnc(-c2cc(-c3cnn(C)c3)ccc2O)n1`
Marked response: No

Exam item: One more molecule: `CN1CCN(Cc2ccc(-c3cnc4[nH]cc(-c5ccc6[nH]ccc6c5)c4c3)cc2)CC1`
Marked response: Yes

* * *

System: LOC_OS03G50810-cb003
Experiment: thermal shift delta Tm vs DMSO control; higher = stronger stabilization (binding)
Settings: 12.5 µM; protein concentration 2 µM
quantity_name: thermal shift delta Tm (°C)
Form entry: value (°C) — number only.

Exam item: Which thermal shift delta Tm is listed for `C[C@H](Nc1ncnc2nc[nH]c12)c1cc2cccc(Cl)c2c(=O)n1-c1ccccc1` ?
Marked response: 0.72

Exam item: One more molecule: `CCOc1cc2ncc(C#N)c(Nc3ccc(OCc4ccccn4)c(Cl)c3)c2cc1NC(=O)/C=C/CN(C)C`
Marked response: 1.2

Exam item: One more molecule: `CC(C)(C#N)c1ccc(N2C(=O)OCc3cnc4ccc(-c5cnc6ccccc6c5)cc4c32)cc1`
Marked response: 0.32

Exam item: One more molecule: `CN1c2ccccc2C(=O)Nc2cnc(Nc3ccc(N4CCC(O)CC4)cc3)nc21`
Marked response: 2.29

Exam item: One more molecule: `COc1cc(N2CCC(N3CCN(C)CC3)CC2)ccc1Nc1ncnc(Nc2ccccc2S(=O)(=O)C(C)C)n1`
Marked response: 0.99

Exam item: One more molecule: `CCN(CC)CCNC(=O)c1c(C)[nH]c(/C=C2\C(=O)Nc3ccc(-c4csc(-c5ccccc5)n4)cc32)c1C`
Marked response: 7.41

Exam item: One more molecule: `COCCOc1ccc2c(c1)ncn2-c1ccc2cccc(N3CCC(N)CC3)c2n1`
Marked response: 8.81

Exam item: One more molecule: `CNS(=O)(=O)Nc1nccc(Cc2c(C)c3ccc(Oc4ncccn4)cc3oc2=O)c1F`
Marked response: 0.57
